test: in vitro; settings: human, plasma
endpointLabel: fraction unbound at 4 h, 10 μM
Give only the figure.

Lab note: measured fraction unbound at 4 h, 10 μM of C[C@@H]1C[C@H]2[C@@H]3CCC4=CC(=O)C=C[C@]4(C)[C@@]3(F)[C@@H](O)C[C@]2(C)[C@@]1(O)C(=O)CO [Dexamethasone, reference compound] was 0.212

# credit: paper PMC9142968
